TARGET_ENTITY: T1, TCE-10 (anti-CD3 scFv R100A; anti-TROP2 wt)
T1 construct: scFv on the Fab heavy chain; also called TCE-10 (R100A)
PROTOCOL: competition ELISA (IC50 above limit); Table 42 Peptide-73 series (FIGS. 103A-103C), limit >3 µM
Where no end group is shown, it is not given here.
RECORDED_METRIC: IC50 (nM)
# value in nM; strip the unit string

Give its IC50 value. Item: VYCGPEFDESVGCA (cysteine pairing not given here; also: biotinylated, site not given here, mask peptide for the CD3 scFv) [Peptide-73] 3000
